assayRemarks: endothelial E-selectin expression blockers – imaging, HUVEC, immunofluorescence, MLSMR starter and 10KST1 sets, primary screen (AID 487);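 also: 100% = median nuclei count of all wells on the same plate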
cond: HUVEC TNFalpha-induced E-selectin immunofluorescence imaging, at 2 µM; measured here: cell number, toxicity
testReadout: nuclei count (%)
Hi! Could you send only the number? It should be in %, unit omitted.

# input Returns the measured nuclei count for the input compound. Input: C=CCn1c(Cc2cccs2)nnc1SCC(=O)Nc1ccc(OC)c(OC)c1
# output 134

New cases:
# input Returns the measured nuclei count for the input compound. Input: O=C(OCC#CCSc1nc2ccccc2o1)c1ccco1
# output 116

# input Can you handle Cc1cccc(NC(=O)CC2NC3CCCCC3NC2=O)c1 (stereo not drawn) next?
# output 106

# input Can you handle O=C1CCC(C(=O)N(Cc2ccco2)C2(C(=O)NC3CCCC3)CCCCC2)N1 (stereo not drawn) next?
# output 139

# input Can you handle O=C(CSc1nc2ccccc2o1)N1CCN(C(=O)c2ccco2)CC1 next?
# output 99.6

# input Can you handle O=C(NCc1cccs1)C(Cc1ccccc1)NS(=O)(=O)c1cccs1 (stereo not drawn) next?
# output 111

# input Can you handle COc1cccc(C=Nc2ccc3c(c2)OCCO3)c1O next?
# output 83.4

# input Can you handle CCN(CC(=O)NCc1cccs1)C(=O)c1cc(S(=O)(=O)N2CCOCC2)ccc1C next?
# output 136

Origin of measurements: PubChem BioAssay
